- tgt: 20S proteasome in HT-29 cell lysates, C-L activity (Homo sapiens, UniProt P28072)
- Sequence (P28072 35-239 limits assumed): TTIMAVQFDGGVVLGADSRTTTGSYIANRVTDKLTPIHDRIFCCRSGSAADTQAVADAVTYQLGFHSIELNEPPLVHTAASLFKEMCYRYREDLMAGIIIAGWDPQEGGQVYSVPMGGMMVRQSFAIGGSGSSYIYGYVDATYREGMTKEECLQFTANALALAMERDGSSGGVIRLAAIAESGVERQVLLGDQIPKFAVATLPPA
- Sequence (Q99436 44-277 partner): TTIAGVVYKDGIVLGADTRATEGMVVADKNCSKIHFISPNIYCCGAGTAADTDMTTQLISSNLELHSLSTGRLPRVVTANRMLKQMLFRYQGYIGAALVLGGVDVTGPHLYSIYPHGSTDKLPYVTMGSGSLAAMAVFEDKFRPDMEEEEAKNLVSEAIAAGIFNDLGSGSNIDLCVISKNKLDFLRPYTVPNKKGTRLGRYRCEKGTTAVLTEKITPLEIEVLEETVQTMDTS
- experimentNotes: Proteasome inhibition assay in cell lysates, HT-29, C-L
- assaySetup: read-out: percentage of proteasome inhibition, C-L, cell lysates HT-29, at 10 µM
reportedProperty: inhibition at 10 µM (%)
Entry rule: numbers only, all in %.

// known answers, use as guide
{"columns": ["compound", "endpointUnit", "inhibition at 10 µM"],
 "data": [
  ["CC(C)c1nc(CN(C)C(=O)N[C@@H](CCN2CCOCC2)C(=O)N[C@H](CC[C@H](Cc2ccccc2)NC(=O)OCc2cncs2)Cc2ccccc2)cs1 [Compound 5, cobicistat, reference compound]", "%", 0],
  ["O=C1c2ccccc2C(=O)c2c(Nc3ccc(S(=O)(=O)N(CCO)CCO)cc3)ccc(O)c21", "%", 6.78],
  ["Cc1ccc(/C(=N/NS(=O)(=O)c2ccc([N+](=O)[O-])cc2)Sc2cc(Cl)c(C)cc2S(N)(=O)=O)cc1", "%", 0],
  ["Cc1ccc2ccccc2c1CSc1ncnc2c1ncn2C1OC(CO)C(O)C1O (centres unmarked)", "%", 0]
]}

Please look at the following compound next.
Recorded inhibition at 10 µM for `C#CCCN1CCN(c2ccc(-n3c(=O)ccc4cnc5ccc(-c6ccc(N)nc6)cc5c43)cc2C(F)(F)F)CC1` with 20S proteasome in HT-29 cell lysates, C-L activity (Homo sapiens, UniProt P28072), please?
0

---

Quick list: IC50 per entry.
- tgt: 20S proteasome in HCT116 cell lysates, CT-L activity (Homo sapiens)
- Sequence (P28074 60-263): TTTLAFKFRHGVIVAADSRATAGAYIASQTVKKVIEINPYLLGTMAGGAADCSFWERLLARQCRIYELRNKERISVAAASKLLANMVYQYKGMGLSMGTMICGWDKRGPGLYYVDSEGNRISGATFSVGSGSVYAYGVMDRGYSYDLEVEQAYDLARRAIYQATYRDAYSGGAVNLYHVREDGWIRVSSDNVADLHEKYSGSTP
- Sequence (P20618 29-241 partner): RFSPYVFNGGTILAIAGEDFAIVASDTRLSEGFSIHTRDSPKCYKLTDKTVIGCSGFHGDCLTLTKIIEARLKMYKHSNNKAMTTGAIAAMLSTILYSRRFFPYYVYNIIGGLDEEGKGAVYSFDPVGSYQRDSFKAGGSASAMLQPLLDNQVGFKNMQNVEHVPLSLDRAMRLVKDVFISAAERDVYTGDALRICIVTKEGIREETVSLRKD
- experimentNotes: Proteasome inhibition assay in cell lysates, HCT116, CT-L
# output: bare number, implied unit µM

Illustrative cases are given below, each with its answer.
{"columns": ["molecule", "tgt", "endpointUnit", "IC50"],
 "data": [
  ["C#CCCN1CCN(c2ccc(-n3c(=O)ccc4cnc5ccc(-c6ccc(N)nc6)cc5c43)cc2C(F)(F)F)CC1", "20S proteasome in HCT116 cell lysates, CT-L activity (Homo sapiens)", "µM", 35.7],
  ["Cc1ccc2ccccc2c1CSc1ncnc2c1ncn2C1OC(CO)C(O)C1O (stereo not shown)", "20S proteasome in HCT116 cell lysates, CT-L activity (Homo sapiens)", "µM", 76.4],
  ["CC(C)c1nc(CN(C)C(=O)N[C@@H](CCN2CCOCC2)C(=O)N[C@H](CC[C@H](Cc2ccccc2)NC(=O)OCc2cncs2)Cc2ccccc2)cs1 [Compound 5, cobicistat, reference compound]", "20S proteasome in HCT116 cell lysates, CT-L activity (Homo sapiens)", "µM", 95.9]
]}

Which measured IC50 value corresponds to `O=C1c2ccccc2C(=O)c2c(Nc3ccc(S(=O)(=O)N(CCO)CCO)cc3)ccc(O)c21` ?
50.9

---

- experimentNotes: Cell viability, MTT assay, K562
- Assay type: cell-based, human
- assaySetup: human, K562 leukemia cells, at 10 µM, read-out: percentage of cell viability, MTT, K562
reportedProperty: viability at 72 h, 10 µM
Write the quantity with the unit trailing the number.

Sample answers from the record:
{"columns": ["molecule", "viability at 72 h, 10 µM"],
 "data": [
  ["O=C1c2ccccc2C(=O)c2c(Nc3ccc(S(=O)(=O)N(CCO)CCO)cc3)ccc(O)c21", "86.3%"],
  ["Cc1ccc(/C(=N/NS(=O)(=O)c2ccc([N+](=O)[O-])cc2)Sc2cc(Cl)c(C)cc2S(N)(=O)=O)cc1", "100%"],
  ["CC(C)C[C@H](NC(=O)[C@H](Cc1ccccc1)NC(=O)c1cnccn1)B(O)O [Bortezomib, bortezomib, reference compound]", "0%"]
]}

Let us move to another entry and its viability at 72 h, 10 µM.
Given the molecule Cc1ccc2ccccc2c1CSc1ncnc2c1ncn2C1OC(CO)C(O)C1O (stereo not shown) , what is its reported viability at 72 h, 10 µM?
93.1%

---

- tgt: 20S proteasome in HCT116 cell lysates, C-L activity (Homo sapiens, UniProt P28072)
- experimentNotes: Proteasome inhibition assay in cell lysates, HCT116, C-L
- assaySetup: read-out: percentage of proteasome inhibition, C-L, cell lysates HCT116, at 100 µM; Table 2 legend: bortezomib 10 µM; NI = No inhibition
reportedProperty: inhibition at 100 µM (%)
Answer with a number only, understood to be in %.

Example entries begin here.
{"columns": ["compound", "tgt", "testValue"],
 "data": [
  ["CC(C)c1nc(CN(C)C(=O)N[C@@H](CCN2CCOCC2)C(=O)N[C@H](CC[C@H](Cc2ccccc2)NC(=O)OCc2cncs2)Cc2ccccc2)cs1 [Compound 5, cobicistat, reference compound]", "20S proteasome in HCT116 cell lysates, C-L activity (Homo sapiens, UniProt P28072)", 28.1],
  ["Cc1ccc2ccccc2c1CSc1ncnc2c1ncn2C1OC(CO)C(O)C1O (centres unmarked) [Compound 1]", "20S proteasome in HCT116 cell lysates, C-L activity (Homo sapiens, UniProt P28072)", 71.2],
  ["Cc1ccc(/C(=N/NS(=O)(=O)c2ccc([N+](=O)[O-])cc2)Sc2cc(Cl)c(C)cc2S(N)(=O)=O)cc1 [Compound 3]", "20S proteasome in HCT116 cell lysates, C-L activity (Homo sapiens, UniProt P28072)", 0],
  ["O=C1c2ccccc2C(=O)c2c(Nc3ccc(S(=O)(=O)N(CCO)CCO)cc3)ccc(O)c21 [Compound 2]", "20S proteasome in HCT116 cell lysates, C-L activity (Homo sapiens, UniProt P28072)", 74.1]
]}

Which inhibition at 100 µM value is on record for C#CCCN1CCN(c2ccc(-n3c(=O)ccc4cnc5ccc(-c6ccc(N)nc6)cc5c43)cc2C(F)(F)F)CC1 [Compound 4] ?
90.1

---

- tgt: isolated human 20S proteasome, T-L activity (Homo sapiens, UniProt P49720+Q99436)
- Construct: human purified erythrocyte-derived 20S proteasome; purchased Enzo Life Sciences, Inc; host or cells: human erythrocytes (natural source)
- experimentNotes: Proteasome inhibition assay in isolated human 20S proteasomes (Proteasome-Glo), T-L activity
- Type: biochemical
- assaySetup: at 10 µM; read-out: percentage of proteasome inhibition, T-L, isolated 20S proteasome
reportedProperty: inhibition at 10 µM (%)
Give the value in % but do not write % after it.

Recorded results for 5 compounds are shown here.
{"columns": ["compound", "endpointUnit", "testValue"],
 "data": [
  ["Cc1ccc(/C(=N/NS(=O)(=O)c2ccc([N+](=O)[O-])cc2)Sc2cc(Cl)c(C)cc2S(N)(=O)=O)cc1", "%", 8.8],
  ["C#CCCN1CCN(c2ccc(-n3c(=O)ccc4cnc5ccc(-c6ccc(N)nc6)cc5c43)cc2C(F)(F)F)CC1", "%", 0],
  ["O=C1c2ccccc2C(=O)c2c(Nc3ccc(S(=O)(=O)N(CCO)CCO)cc3)ccc(O)c21", "%", 0],
  ["CC(C)C[C@H](NC(=O)[C@H](Cc1ccccc1)NC(=O)c1cnccn1)B(O)O [Bortezomib, bortezomib, reference compound]", "%", 3.2],
  ["CC(C)c1nc(CN(C)C(=O)N[C@@H](CCN2CCOCC2)C(=O)N[C@H](CC[C@H](Cc2ccccc2)NC(=O)OCc2cncs2)Cc2ccccc2)cs1 [Compound 5, cobicistat, reference compound]", "%", 5.37]
]}

Checklist item: inhibition at 10 µM tested on isolated human 20S proteasome, T-L activity (Homo sapiens, UniProt P49720+Q99436), entry Cc1ccc2ccccc2c1CSc1ncnc2c1ncn2C1OC(CO)C(O)C1O (stereo not drawn) , value?
4.43

---

- Test system: HT-29 cells
- experimentNotes: Cell viability, MTT assay, HT-29
- Assay type: cell-based, human
- assaySetup: at 100 µM, 72 h
reportedProperty: percentage of cell viability, MTT, HT-29 (%)
Output spec: scalar in %, unitless text.

{"columns": ["compound", "percentage of cell viability, MTT, HT-29 [%]"],
 "data": [
  ["Cc1ccc2ccccc2c1CSc1ncnc2c1ncn2C1OC(CO)C(O)C1O (stereo not shown)", 23]
]}

percentage of cell viability, MTT, HT-29 for `O=C1c2ccccc2C(=O)c2c(Nc3ccc(S(=O)(=O)N(CCO)CCO)cc3)ccc(O)c21` ?
65

One more compound: CC(C)c1nc(CN(C)C(=O)N[C@@H](CCN2CCOCC2)C(=O)N[C@H](CC[C@H](Cc2ccccc2)NC(=O)OCc2cncs2)Cc2ccccc2)cs1 [Compound 5, cobicistat, reference compound]
25

Follow-up entry: `C#CCCN1CCN(c2ccc(-n3c(=O)ccc4cnc5ccc(-c6ccc(N)nc6)cc5c43)cc2C(F)(F)F)CC1`
34

All values here come from paper PMC10458307.
